- STUDY SYSTEM: IL-17A(FLAG-Tagged): IL-17RA(His-Tagged) (Homo sapiens, UniProt Q16552, K93Q)
- Sequence (Q16552 with tags, fused parts or gaps K93Q): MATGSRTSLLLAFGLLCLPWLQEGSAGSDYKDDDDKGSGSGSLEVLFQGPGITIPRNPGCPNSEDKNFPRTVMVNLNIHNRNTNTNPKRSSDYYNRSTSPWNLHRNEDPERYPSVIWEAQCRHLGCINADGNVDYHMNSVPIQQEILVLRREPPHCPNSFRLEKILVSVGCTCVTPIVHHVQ
- PROTOCOL: IL-17A(FLAG-Tagged): IL-17RA(His-Tagged) Binding Disruption Eu-HTRF Assay
- MEASUREMENT CONTEXT: IL-17A/IL-17RA binding disruption, simple average if tested more than once
QUANTITY NAME: IC50 (nM)

MOLECULE	QUANTITY NAME	UNIT NAME	READING
O=C(CCC(F)(F)F)NC(c1cnn2cc([C@@H](NC(=O)c3ccccc3)C3CCC(F)(F)CC3)nc2c1)C1CC1 (single isomer, unassigned) [Example 13]	IC50	nM	7600

P: O=C(CC1CC(F)(F)C1)N[C@@H](c1cnn2cc([C@@H](NC(=O)c3nonc3N3CCOCC3)C3CCC(F)(F)CC3)nc2c1)C1CC1
Q: Cc1nonc1C(=O)N[C@H](c1cn2ncc([C@H](NC(=O)COC3CC3)C3CC3)cc2n1)C1CCC(F)(F)CC1
q: Select the item whose IC50 value is smaller, choosing between P and Q . State your choice using its label.
a: P
